Source listed as ChEMBL document CHEMBL1132013.

target: Protein kinase C alpha type (Homo sapiens); experiment: Displacement of [3H]PDBu from human recombinant Protein kinase C alpha
MEASURED PARAMETER: Ki (nM)
Supply the numeric figure in nM, leaving out any unit text.

API: value(readout=Ki, system=Protein kinase C alpha type (Homo sapiens)) for record CCCCC1(CCCC)CC[C@H]2CC(=O)N[C@H](CO)C[C@]2(C)C1
80
